Test system: cell-surface B7-2
Sequence (P01552 28-266 limits assumed): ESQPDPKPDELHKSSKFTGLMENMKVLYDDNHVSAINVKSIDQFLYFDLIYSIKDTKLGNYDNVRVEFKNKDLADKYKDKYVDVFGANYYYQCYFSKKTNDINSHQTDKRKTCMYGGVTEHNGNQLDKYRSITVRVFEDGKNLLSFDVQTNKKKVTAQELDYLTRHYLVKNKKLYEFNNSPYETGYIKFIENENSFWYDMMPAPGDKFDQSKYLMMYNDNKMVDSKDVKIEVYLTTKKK
Format: binding, human
Square brackets hold non-standard residues; d marks the D form. Ends that are not written are not given here.
property measured: inhibition of binding of SEB to cells expressing B7-2

[
  {
    "substance": "[dA]DSDSWTLR[dA] [D-Ala-pB2-6]",
    "tested on": "cell-surface B7-2",
    "measured value": "effectively blocked"
  },
  {
    "substance": "SPMLVAYD [p2TA, reference compound]",
    "tested on": "cell-surface B7-2",
    "measured value": "equally inhibited"
  },
  {
    "substance": "HVKGKHLCP [p1TA, reference compound]",
    "tested on": "cell-surface B7-2",
    "measured value": "equally inhibited"
  },
  {
    "substance": "[dA]EKFDSVHSKYM[dA] [D-Ala-pB2-4]",
    "tested on": "cell-surface B7-2",
    "measured value": "effectively blocked"
  }
]
